Rule: glass transition temperature under 100 °C gives False, otherwise True.

Past entries and their recorded results:
Incoming: # bool: glass transition temperature of *c1ccc(Oc2ccc(Oc3ccc(N4C(=O)C5CCC(C6CCC7C(=O)N(*)C(=O)C7C6)CC5C4=O)cc3)cc2)cc1 (repeat unit) >= 100 °C
Outgoing: True

Incoming: In plain terms: is recorded glass transition temperature at least 100 °C for *NC(=O)NCCCCCCNC(=O)Nc1cccc(*)n1 (repeat unit) ?
Outgoing: True

Incoming: Exam item: decide whether the reported glass transition temperature for *CC(=O)NCCCCCCNC(=O)CO* (repeat unit) is at least 100 °C.
Outgoing: False

Incoming: Is it the case that *CCC[Si](C)(C)O[Si](C)(C)CCCN1C(=O)c2ccc(-c3ccc4c(c3)C(=O)N(*)C4=O)cc2C1=O (repeat unit) has glass transition temperature reaching or exceeding 100 °C?
Outgoing: False

Incoming: Entry *CC(*)C(=O)OCC(F)(F)C(F)(F)C(F)(F)C(F)(F)C(F)(F)C(F)(F)C(F)(F)F (repeat unit) : is its glass transition temperature no less than 100 °C?
Outgoing: False

Incoming: Is glass transition temperature at least 100 °C? Consider *c1ccc([Si](CCCC)(CCCC)[Si](*)(CCCC)CCCC)s1 (repeat unit)
Outgoing: False

***
Incoming: Assess whether reported glass transition temperature for *c1ccc(C(=O)Nc2cccc(S(=O)(=O)c3cccc(NC(=O)c4ccc(N5C(=O)c6ccc(-c7ccc8c(c7)C(=O)N(*)C8=O)cc6C5=O)cc4)c3)c2)cc1 (repeat unit) sits at 100 °C or higher.
Outgoing: True

Incoming: Decide: glass transition temperature of *C(=O)Nc1ccc(C2(c3ccc(N4C(=O)c5ccc(*)cc5C4=O)cc3)CCCCC2)cc1 (repeat unit) >= 100 °C?
Outgoing: True

Incoming: Is it the case that *Oc1ccc(C(C)(C)c2ccc(Oc3ccc(C(=O)C(=O)c4ccc(*)cc4)cc3)cc2)cc1 (repeat unit) has glass transition temperature reaching or exceeding 100 °C?
Outgoing: True

Incoming: Quick check: does *Oc1ccc(S(=O)(=O)c2ccc(*)cc2)cc1 (repeat unit) have glass transition temperature greater than or equal to 100 °C?
Outgoing: True

Incoming: Confirm if glass transition temperature reported for the molecule *CC(*)(C)C(=O)Oc1ccc(/N=N/c2ccc(OC)cc2)cc1 (repeat unit) is 100 °C or above.
Outgoing: True

Incoming: Could you tell me if the measured glass transition temperature of *CCN(C)C(=O)CCCCCCCCC(=O)N(*)C (repeat unit) reaches 100 °C or more?
Outgoing: False

Incoming: Does glass transition temperature meet or surpass 100 °C for *CCCCCCCCCCOC(=O)CCCCCNC(=O)CCCCC(=O)NCCCCCC(=O)O* (repeat unit) ?
Outgoing: False

Incoming: Please tell me: is the molecule *c1ccc(CC(=O)Nc2ccc(Oc3ccc(NC(=O)Cc4ccc(-c5sc(*)c(-c6ccccc6)c5-c5ccccc5)cc4)cc3)cc2)cc1 (repeat unit) at or over 100 °C in terms of glass transition temperature?
Outgoing: True

Incoming: Could you tell me if the measured glass transition temperature of *c1ccc(Sc2cccc(Sc3ccc(S(*)=O)cc3)c2)cc1 (repeat unit) reaches 100 °C or more?
Outgoing: True

Incoming: Reported glass transition temperature at or above 100 °C? *c1cc(C(=O)NCCCCCCCCCCCCCC)cc(N2C(=O)c3ccc(-c4ccc5c(c4)C(=O)N(*)C5=O)cc3C2=O)c1 (repeat unit)
Outgoing: True

Incoming: glass transition temperature >= 100 °C for *Oc1ccc(C(=O)c2cccc(C(=O)c3ccc(*)c(CC)c3)c2)cc1CC (repeat unit) ?
Outgoing: True

Incoming: Kindly determine if glass transition temperature recorded for *c1ccc(C(=O)c2ccc(C(=O)c3ccc(Oc4ccc(-c5nn(*)c(=O)c6ccccc56)c(F)c4)cc3)cc2)cc1 (repeat unit) is above or exactly 100 °C.
Outgoing: True

Incoming: Tell me whether glass transition temperature is at least 100 °C here: *C(=O)OCCOC(=O)c1ccc(*)o1 (repeat unit)
Outgoing: False

Incoming: Please tell me: is the molecule *Oc1ccc(OC(=O)c2ccc(C(*)=O)cc2Oc2ccc(Cl)cc2)cc1 (repeat unit) at or over 100 °C in terms of glass transition temperature?
Outgoing: True

Incoming: Is reported glass transition temperature greater than or equal to 100 °C here: */C=C(/*)C(CCCCCCC)[Si](C)(C)C (repeat unit)
Outgoing: True

Incoming: Could you verify whether the entry *CC(Cc1ccc(-c2ccccc2)cc1)C[Si](*)(C)C (repeat unit) shows glass transition temperature of no less than 100 °C?
Outgoing: False

Incoming: Check the entry *CCOCCOCCOC(=O)/C=C/C(=O)NCCCCCCNC(=O)/C=C/C(=O)O* (repeat unit) : does glass transition temperature equal or exceed 100 °C?
Outgoing: False

Incoming: Is it the case that *c1ccc2c(c1)C(=O)N(c1cccc(Oc3cc(Oc4cccc(N5C(=O)c6ccc(C(*)(C(F)(F)F)C(F)(F)F)cc6C5=O)c4)ccc3P(=O)(c3ccccc3)c3ccccc3)c1)C2=O (repeat unit) has glass transition temperature reaching or exceeding 100 °C?
Outgoing: True

Incoming: I'd appreciate it if you could say whether *CC(OC)C(C)(C(=O)OC)C(*)(C)C(=O)OC (repeat unit) has glass transition temperature at least equal to 100 °C.
Outgoing: True

Incoming: Determine whether this molecule has glass transition temperature no lower than 100 °C: *CC(*)(C)C(=O)OCCOCC (repeat unit)
Outgoing: False

Incoming: Say whether *CC(*)[Si](C)(C)C (repeat unit) shows glass transition temperature of 100 °C or more.
Outgoing: True

---

The following molecules are shown together with reported glass transition temperature values.
Write the numeric value and append its unit.

Observe how each entry below is paired with its result.
Incoming: Need glass transition temperature of *CC(*)(C)C(=O)OCCCCCCN1CCN(c2ccc(/N=N/c3ccc(C=C(C#N)C#N)cc3)cc2)CC1 (repeat unit) , thanks.
Outgoing: 83.00 °C

Incoming: Which glass transition temperature reading was recorded for the molecule *c1ccc(C(c2ccc(-c3nc4ccc(-c5ccc6nc(*)oc6c5)cc4o3)cc2)(C(F)(F)F)C(F)(F)F)cc1 (repeat unit) ?
Outgoing: 345.00 °C

Read the next record carefully.
Incoming: Which glass transition temperature is listed for *C(=O)Nc1ccc(-c2ccc(NC(=O)c3ccc4c(c3)C(=O)N(c3ccc(NC(=O)Nc5ccc(N6C(=O)c7ccc(*)cc7C6=O)cc5)cc3)C4=O)cc2)cc1 (repeat unit) ?
Outgoing: 233.00 °C

---

glass transition temperature by entry:
Please append the unit to your numeric answer.

Incoming: Record request: glass transition temperature value, item *Nc1ccccc1CCc1ccc(NC(*)=O)cc1 (repeat unit)
Outgoing: 198.00 °C

Incoming: Dear colleague, I am looking for the recorded glass transition temperature of the following compound: *c1ccc(Oc2ccc(-c3cnc4ccc(-c5ccc6ncc(*)nc6c5)cc4n3)cc2)cc1 (repeat unit)
Outgoing: 305.00 °C

Incoming: // returns reported glass transition temperature for input *CCCCCCCCNC(=O)NCc1ccc(CNC(=O)N*)cc1 (repeat unit)
Outgoing: 68.00 °C

Incoming: Need glass transition temperature of *Cc1cc2cc(C(=O)Nc3cccc(NC(=O)c4cc5cc(*)c(OC(=O)COc6ccc7ccc(=O)oc7c6)cc5oc4=O)c3)c(=O)oc2cc1OC(=O)COc1ccc2ccc(=O)oc2c1 (repeat unit) , thanks.
Outgoing: 240.00 °C

Incoming: So what's the measured glass transition temperature for this one? *CC(C)(C)CO* (repeat unit)
Outgoing: -50.00 °C

Next:
Incoming: Returns the measured glass transition temperature for the input compound. Input: *OC(=O)CCC(=O)OC1COC2C(*)COC12 (repeat unit)
Outgoing: 77.00 °C

Incoming: Which measured glass transition temperature value corresponds to *Oc1cc(OC(=O)c2ccc(OC)cc2)c(OC(=O)CCCCCCCCCCCCCCC(*)=O)cc1OC(=O)c1ccc(OC)cc1 (repeat unit) ?
Outgoing: 33.00 °C

Incoming: For the compound shown here, *c1ccc(OC(=O)Oc2ccc(C3(*)OC(=O)c4ccccc43)cc2)cc1 (repeat unit) , give the reported glass transition temperature.
Outgoing: 252.20 °C

Incoming: Recorded glass transition temperature of *c1cccc(-c2nc3cc(-c4ccc5nc(*)c(-c6ccc7ccccc7c6)nc5c4)ccc3nc2-c2ccc3ccccc3c2)c1 (repeat unit) , please.
Outgoing: 317.00 °C

Incoming: Bench note: what glass transition temperature did *c1ccc(S(*)(=O)=O)cc1 (repeat unit) show?
Outgoing: 219.50 °C

Incoming: I would be grateful if you could share the reported glass transition temperature for *c1cccc(N2C(=O)c3ccc(Oc4ccc(C(C)(C)c5ccc(Oc6ccc7c(c6)C(=O)N(*)C7=O)cc5)cc4)cc3C2=O)c1 (repeat unit) .
Outgoing: 217.50 °C

Incoming: Entry *c1ccc(Oc2ccc(-c3cnc4cc5nc(*)cnc5cc4n3)cc2)cc1 (repeat unit) has what glass transition temperature?
Outgoing: 353.00 °C

Incoming: GET /values?readout=glass transition temperature&item= *CC(=O)Nc1ccc(Oc2cccc(Oc3ccc(NC(=O)c4ccc5c(c4)C(=O)N(*)C5=O)cc3)c2)cc1 (repeat unit)
Outgoing: 220.00 °C

Incoming: What measured glass transition temperature goes with *[Si](*)(C)c1ccccc1 (repeat unit) ?
Outgoing: 88.00 °C
